The next entries give measured IC50 for ENO2 (Homo sapiens, UniProt P09104).

O=C(CP(=O)(O)O)NO [PhAH, phosphonoacetohydroxamate] = ~20 nM

For each entry beneath this line, provide reported IC50.
1. O=C1C(P(=O)(O)O)CCN1O (stereo not drawn)
2. O=C1C(P(=O)(O)O)CC(O)N1O (racemic)

Result:
1. ~2000 nM
2. ~20 nM

* * *

Molecular target: enolase (ENO1 and ENO2)
Assay: Enolase inhibitory activity in vitro, isoform not distinguished (ENO1 and ENO2)
Settings: against ENO1 and ENO2, incubated prior to 5 mM 2-PG; contaminant Hex not ruled out
Observable: IC50

Task: Data request, read-out IC50, for CC(C)(C)C(=O)OCOP(=O)(OCOC(=O)C(C)(C)C)C1CCCN(O)C1=O (stereo not shown)
Result: ~100 µM
